Please go through the items and note down their pIC50.
system: CEM-SS cells; experiment: cells; assay type: cell-based; details: Table 1; 50% cytotoxicity; read-out: IC50
Give bare numbers, as −log10 of the molar value.

INSERT INTO measurements (compound, value_measured) VALUES
  ('COc1ccc(NS(=O)(=O)c2ccc(NC(=O)c3ccccc3SSc3ccccc3C(=O)Nc3ccc(S(=O)(=O)Nc4ccc(OC)nn4)cc3)cc2)nn1 [Compound 12 D]', 4.27);

Batch: pIC50 for all items listed.
1. COc1cnc(NS(=O)(=O)c2ccc(NC(=O)c3ccccc3SSc3ccccc3C(=O)Nc3ccc(S(=O)(=O)Nc4ncc(OC)cn4)cc3)cc2)nc1 [Compound 8 D]
2. Cc1cc(NS(=O)(=O)c2ccc(NC(=O)c3ccccc3SSc3ccccc3C(=O)Nc3ccc(S(=O)(=O)Nc4cc(C)nc(C)n4)cc3)cc2)nc(C)n1 [Compound 19 D]
3. COc1ccc(NS(=O)(=O)c2ccc(-n3sc4ccccc4c3=O)cc2)nn1 [Compound 12 BITA]
4. O=C(NS(=O)(=O)c1ccc(-n2sc3ccccc3c2=O)cc1)c1ccccc1 [Compound 3 BITA]
5. Cc1cc(C)nc(NS(=O)(=O)c2ccc(NC(=O)c3ccccc3SSc3ccccc3C(=O)Nc3ccc(S(=O)(=O)Nc4nc(C)cc(C)n4)cc3)cc2)n1 [Compound 9 D]
6. NS(=O)(=O)c1ccc(NS(=O)(=O)c2ccc(-n3sc4ccccc4c3=O)cc2)cc1 [Compound 22 BITA]

1: 4.26; 2: 4.74; 3: 4.26; 4: 4.31; 5: 4.49; 6: 4.74
